fraction unbound reference
# methodNotes: Fraction of drug unbound to plasma proteins
# Format: in vitro ADME, Mouse
# runConditions: Table 9, mouse, read-out: Fu (p) % (fraction of drug unbound to plasma proteins)

Some compounds with known fraction unbound results, for comparison:
CN1CCN(c2c(CN3CCCC3c3ccccn3)nc3ccc(F)cn23)CC1 (stereo not shown) [Compound I-63] ... 0.133
CN1CCN(c2cccc3[nH]c(CN4CCCC4c4ncccc4Cl)nc23)CC1 (stereo not shown) [Compound I-26] ... 0.127

Enquiry: Look at this compound and give its reported fraction unbound. CN1CCN(c2c(CN3CCCC3c3ccccn3)nc3ccccn23)CC1 (stereo not shown) [Compound I-41]
Return: 0.239

Enquiry: Look at this compound and give its reported fraction unbound. CN1CCN(c2c(CN3CCCC3c3nccs3)nc3ccccn23)CC1 (stereo not shown) [Compound I-70]
Return: 0.148

====

# methodNotes: in vitro
# runConditions: human, Caco-2, pH 7.4
metric: Papp B→A at 90 min, 10 μM

Some compounds with known Papp B→A at 90 min, 10 μM results, for comparison:
Cc1cccnc1C1CCCN1Cc1nc2cccc(N3CCN(C4CC4)CC3)c2[nH]1 (stereo not drawn) ... 10 to 30 ×10⁻⁶ cm/s
CN1CCN(c2cccc3nc(CN4CCCC4c4ncccc4Cl)c(F)n23)CC1 (stereo not drawn) ... 10 to 30 ×10⁻⁶ cm/s
c1ccc(C2CCCN2Cc2nc3ccccn3c2-c2ccncc2)nc1 (stereo not drawn) ... > 30 ×10⁻⁶ cm/s
CN1CCN(c2c(CN3CCCC3c3ccccn3)nc3ccccn23)CC1=O (stereo not drawn) ... > 30 ×10⁻⁶ cm/s
CN1CCN(c2c(CN3CCCC3c3ccccn3)nc3c(F)cccn23)CC1 (stereo not drawn) ... 10 to 30 ×10⁻⁶ cm/s

Enquiry: Look at this compound and give its reported Papp B→A at 90 min, 10 μM. Cc1cccnc1C1CCCN1Cc1nccn1CC1CCN(CC(F)(F)F)CC1 (stereo not drawn)
Return: > 30 ×10⁻⁶ cm/s

Enquiry: Look at this compound and give its reported Papp B→A at 90 min, 10 μM. c1ccc(C2CCCN2Cc2ccccc2-n2cccn2)nc1 (stereo not drawn)
Return: > 30 ×10⁻⁶ cm/s

Enquiry: Look at this compound and give its reported Papp B→A at 90 min, 10 μM. Cc1cccnc1C1CCCN1Cc1cn2c(N3CCN(C)CC3)cccc2n1 (stereo not drawn)
Return: 10 to 30 ×10⁻⁶ cm/s

Enquiry: Look at this compound and give its reported Papp B→A at 90 min, 10 μM. CN1CCC(n2c(CN3CCCC3c3ccccn3)nc3ccccc32)CC1 (stereo not drawn)
Return: 10 to 30 ×10⁻⁶ cm/s

Enquiry: Look at this compound and give its reported Papp B→A at 90 min, 10 μM. c1ccc(N2CCN(c3c(CN4CCCC4c4ccccn4)nc4ccccn34)CC2)cc1 (stereo not drawn)
Return: 10 to 30 ×10⁻⁶ cm/s

Enquiry: Look at this compound and give its reported Papp B→A at 90 min, 10 μM. Cc1cccnc1C1CCCN1Cc1nccn1CCCCN1CCOCC1 (stereo not drawn)
Return: 10 to 30 ×10⁻⁶ cm/s

Enquiry: Look at this compound and give its reported Papp B→A at 90 min, 10 μM. CN1CCN(c2c(CN3CCCC3c3ncccc3Cl)nc3ccccn23)CC1 (stereo not drawn)
Return: 10 to 30 ×10⁻⁶ cm/s

Enquiry: Look at this compound and give its reported Papp B→A at 90 min, 10 μM. Cc1cccnc1CN1CCCC1c1nccn1CC1CCN(C)CC1 (stereo not drawn)
Return: 10 to 30 ×10⁻⁶ cm/s

====

# systemName: CXCR4 (Jurkat cells expressing CXCR4) (Homo sapiens, UniProt P61073)
# Construct: Jurkat cells expressing CXCR4; endogenous in cells; host or cells: Jurkat
# Sequence (P61073 whole entry): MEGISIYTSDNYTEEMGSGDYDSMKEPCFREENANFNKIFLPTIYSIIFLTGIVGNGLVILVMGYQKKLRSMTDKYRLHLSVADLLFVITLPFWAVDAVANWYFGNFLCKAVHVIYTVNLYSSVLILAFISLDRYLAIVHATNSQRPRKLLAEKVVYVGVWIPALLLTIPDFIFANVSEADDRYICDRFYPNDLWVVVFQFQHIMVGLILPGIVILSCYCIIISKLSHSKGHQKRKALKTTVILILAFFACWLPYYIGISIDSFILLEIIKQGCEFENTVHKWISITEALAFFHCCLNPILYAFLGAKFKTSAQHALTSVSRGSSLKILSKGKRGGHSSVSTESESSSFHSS
# methodNotes: Chemokine (CXCL12-AF647) binding inhibition assay
# runConditions: CXCL12-AF647 25 ng/mL, read-out: IC50 CXCL-12 binding Jurkat
pIC50: −log10 of the molar value.
metric: pIC50

Enquiry: Recall the recorded pIC50 for Cc1cccnc1CN1CCCC1c1cn2c(N3CCN(C)CC3)cccc2n1 (stereo not drawn) with CXCR4 (Jurkat cells expressing CXCR4) (Homo sapiens, UniProt P61073) and state it.
Return: 7.00 to 11.00

Enquiry: Recall the recorded pIC50 for Cc1cccnc1C1CCCN1Cc1nc2ccccc2n1CC1CCN(C)CC1 (stereo not drawn) with CXCR4 (Jurkat cells expressing CXCR4) (Homo sapiens, UniProt P61073) and state it.
Return: 7.00 to 11.00

Enquiry: Recall the recorded pIC50 for CN1CCN(c2c(CN3CCCC3c3ccccn3)nc3ccc(F)cn23)CC1 (stereo not drawn) with CXCR4 (Jurkat cells expressing CXCR4) (Homo sapiens, UniProt P61073) and state it.
Return: 7.00 to 11.00

Enquiry: Recall the recorded pIC50 for FC(F)(F)CN1CCN(c2c(CN3CCCC3c3ccccn3)nc3ccccn23)CC1 (stereo not drawn) with CXCR4 (Jurkat cells expressing CXCR4) (Homo sapiens, UniProt P61073) and state it.
Return: 7.00 to 11.00

====

# systemName: CXCR4 (U87.CXCR4 cells) (Homo sapiens)
# Construct: expressed in transfected cells; host or cells: U87 (U87.CXCR4)
# Sequence (P61073 whole entry): as above
# methodNotes: Intracellular CXCL-12-induced calcium mobilization assay (FLIPR)
# Format: cell-based
# runConditions: CXCL-12 25-50 ng/mL, read-out: IC50 CXCL-12 Ca2+ flux U87.CXCR4+
# Method: Intracellular CXCL-12-Induced Calcium Mobilization Assay Intracellular calcium mobilization induced by chemokines or chemokine-derived peptides were evaluated using a calcium responsive fluorescent probe and a FLIPR system. […] The intracellular calcium mobilization induced by the CXCL-12 (25-50 ng/mL) was then measured at 37° C. by monitoring the fluorescence as a function of time in all the wells simultaneously using a fluorometric imaging plate reader (FLIPR Tetra, Molecular Devices).
IC50 reference

Some compounds with known IC50 results, for comparison:
CN1CCN(c2cccc3nc(C4CCCN4Cc4ncccn4)[nH]c23)CC1 (stereo not shown) ... ≥ 1000 nM
Cc1cccnc1C1CCCN1Cc1cccc(C(=O)Nc2ccncc2)n1 (stereo not shown) ... ≥ 1000 nM
Cc1cccnc1C1CCCN1Cc1nc2cccc(N3CCN(C)CC3)n2c1CO (stereo not shown) ... 100 to 1000 nM
CN1CCN(c2c(CN3CCCC3c3ccccn3)nc3cc(F)ccn23)CC1 (stereo not shown) ... 0.01 to 100 nM
Cc1cccnc1C1CCCN1Cc1nccn1CC1CCN(c2ccccn2)CC1 (stereo not shown) ... ≥ 1000 nM
CN1CCN(c2cccc3nc(CN4CCCC4c4ncccc4Cl)cn23)CC1 (stereo not shown) ... 100 to 1000 nM

Kindly review the next compound as well.
Enquiry: Recall the recorded IC50 for Cc1cccnc1C1CCCN1Cc1nc2cccc(N3CCN(C)CC3)n2c1C (stereo not shown) with CXCR4 (U87.CXCR4 cells) (Homo sapiens) and state it.
Return: 100 to 1000 nM

====

# methodNotes: in vitro
# runConditions: human, Caco-2, pH 7.4
metric: efflux ratio at 90 min, 10 μM

Some compounds with known efflux ratio at 90 min, 10 μM results, for comparison:
CN1CCN(c2cccc3[nH]c(CN4CCCC4c4nccn4C)nc23)CC1 (stereo not drawn) [Compound I-51] ... 0.1 to 10
Cc1c(CN2CCCC2c2ncccc2Cl)nc2cccc(N3CCN(C)CC3)n12 (stereo not drawn) [Compound I-47] ... 0.1 to 10
CN1CCN(C(=O)c2c(CN3CCCC3c3ccccn3)nc3ccccn23)CC1 (stereo not drawn) [Compound I-123] ... 0.1 to 10
Cc1cccnc1C1CCCN1Cc1nc2cccc(N3CCN(C)CC3)n2c1Br (stereo not drawn) [Compound I-7] ... 0.1 to 10
Cc1cccnc1CN1CCCC1c1nccn1CC1CCN(C)CC1 (stereo not drawn) [Compound I-92] ... 0.1 to 10

Enquiry: Look at this compound and give its reported efflux ratio at 90 min, 10 μM. c1ccc(N2CCN(c3c(CN4CCCC4c4ccccn4)nc4ccccn34)CC2)cc1 (stereo not drawn) [Compound I-96]
Return: 0.1 to 10

Enquiry: Look at this compound and give its reported efflux ratio at 90 min, 10 μM. Cc1cccnc1C1CCCN1Cc1nccn1CC1CCN(CC(F)(F)F)CC1 (stereo not drawn) [Compound I-106]
Return: 0.1 to 10

Enquiry: Look at this compound and give its reported efflux ratio at 90 min, 10 μM. O=C1CN(c2c(CN3CCCC3c3ccccn3)nc3ccccn23)CCN1 (stereo not drawn) [Compound I-86]
Return: 10 to 30

Enquiry: Look at this compound and give its reported efflux ratio at 90 min, 10 μM. CN1CC=C(c2c(CN3CCCC3c3ccccn3)nc3ccccn23)CC1 (stereo not drawn) [Compound I-79]
Return: 0.1 to 10

Enquiry: Look at this compound and give its reported efflux ratio at 90 min, 10 μM. Cc1cccnc1C1CCCN1Cc1cn2c(C3OCC(N(C)C)CO3)cccc2n1 (stereo not drawn) [Compound I-99]
Return: > 30

Enquiry: Look at this compound and give its reported efflux ratio at 90 min, 10 μM. CN1CCN(c2cccc3[nH]c(CN4CCCC4c4ncccc4Cl)nc23)CC1 (stereo not drawn) [Compound I-26]
Return: 0.1 to 10

Enquiry: Look at this compound and give its reported efflux ratio at 90 min, 10 μM. Cc1cccnc1C1CCCCN1Cc1ccccc1-n1cccn1 (stereo not drawn) [Compound I-2]
Return: 0.1 to 10

Enquiry: Look at this compound and give its reported efflux ratio at 90 min, 10 μM. c1ccc(C2CCCN2Cc2nc3ccccn3c2N2CCOCC2)nc1 (stereo not drawn) [Compound I-91]
Return: 0.1 to 10

Enquiry: Look at this compound and give its reported efflux ratio at 90 min, 10 μM. CN1CCN(c2cccc3nc(C4CCCN4Cc4ncccn4)[nH]c23)CC1 (stereo not drawn) [Compound I-105]
Return: 0.1 to 10

Enquiry: Look at this compound and give its reported efflux ratio at 90 min, 10 μM. CN1CCC(n2ccnc2CN2CCCC2c2ccccn2)CC1 (stereo not drawn) [Compound I-55]
Return: 0.1 to 10
